- Test system: Mus musculus
- Assay comment: Antinociceptive activity in Swiss albino mouse assessed as inhibition of acetic-acid induced abdominal constriction at 100 umol/kg, po administered 1 hr prior to acetic-acid challenge measured after 10 mins relative to vehicle-treated control
- Format: functional
- Recorded conditions: Abdomen
The source made the active and inactive calls. The calls are words filed in the database; no cut-off is given here.
Endpoint name: inhibition

For orientation, consider the following solved cases.
[[record]]
compound = "O=C(OCc1c(-c2ccccc2)no[n+]1[O-])c1cc(N2C(=O)c3ccccc3C2=O)ccc1O"
endpoint_value = "inactive"

[[record]]
compound = "O=C(OCc1c(-c2ccccc2)no[n+]1[O-])c1cccc(N2C(=O)c3ccccc3C2=O)c1"
endpoint_value = "inactive"

[[record]]
compound = "O=C(OCc1c(-c2ccccc2)no[n+]1[O-])c1ccccc1N1C(=O)c2ccccc2C1=O"
endpoint_value = "inactive"

[[record]]
compound = "O=C(NCCOc1no[n+]([O-])c1S(=O)(=O)c1ccccc1)c1ccc(N2C(=O)c3ccccc3C2=O)cc1"
endpoint_value = "inactive"

[[record]]
compound = "O=C1c2ccccc2C(=O)N1Cc1c(-c2ccccc2)no[n+]1[O-]"
endpoint_value = "inactive"


Proceeding to the next compound to report its inhibition.
Q: Missing value: inhibition, Mus musculus, entry NC(=O)NO [HYDROXYUREA] . Fill in?
Ans: inactive
